# Tested on: HeLa cells
# test-method-notes: Cell cycle assay in HeLa cells
# Format: cell-based, human
# condition-notes: HeLa cells, 150 nM oligomeric compound, 48 hours after treatment; relative to untreated control (UTC=100)
In the oligonucleotide strings, read from the 5' end, every base follows the letter of its sugar. An asterisk marks phosphorothioate; unmarked linkages are phosphodiester. Other units and linkages are bracketed, terminal groups are in braces. A string of capitals states the bases alone. e = 2'-O-(2-methoxyethyl) (MOE); [5mC] = 5-methylcytosine; d = 2'-deoxy (DNA)
% cells in cell cycle phase: aneuploid by entry:
All answers are understood in %, so give the number only.

328707 (eG*e[5mC]*eA*eA*e[5mC]*dA*dG*dG*d[5mC]*d[5mC]*dT*d[5mC]*dA*dA*dT*eA*eT*e[5mC]*eT*eT) [compound 328707] = 155
328687 (eG*e[5mC]*eT*eT*e[5mC]*d[5mC]*d[5mC]*dA*dG*d[5mC]*dG*dG*d[5mC]*d[5mC]*dT*eA*eT*eA*eG*eT; antisense) [compound 328687] = 171

Q: What value of measured % cells in cell cycle phase: aneuploid is listed for 345395 (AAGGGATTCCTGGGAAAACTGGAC; sugars from the 5' end e5 d10 e9, all phosphorothioate, methylation of C not given here) [compound 345395] ?
A: 87

Q: State the recorded % cells in cell cycle phase: aneuploid for this entry: 328744 (antisense e[5mC]*eG*eG*eA*eT*d[5mC]*d[5mC]*dT*dG*dT*dT*dA*d[5mC]*d[5mC]*dT*e[5mC]*eA*e[5mC]*e[5mC]*eA) [compound 328744]
A: 171

Q: Query (substance): 338826 (antisense CGGATCCTGTTACCTCACCA; all 2'-MOE, all phosphorothioate, methylation of C not given here) [compound 338826] ; field requested: % cells in cell cycle phase: aneuploid
A: 137

* * *

The substances listed here are annotated with their TG.
# Test system: adipocytes
# test-method-notes: Triglyceride accumulation assay in adipocytes
# Format: cell-based, human
# condition-notes: Table 20; adipocyte differentiation assay as in Example 13
In the oligonucleotide strings, read from the 5' end, every base follows the letter of its sugar. An asterisk marks phosphorothioate; unmarked linkages are phosphodiester. Other units and linkages are bracketed, terminal groups are in braces. A string of capitals states the bases alone. e = 2'-O-(2-methoxyethyl) (MOE); [5mC] = 5-methylcytosine; d = 2'-deoxy (DNA)

328382 (e[5mC]*eA*eG*eA*e[5mC]*dT*d[5mC]*d[5mC]*d[5mC]*dA*dA*d[5mC]*dT*dG*dA*e[5mC]*e[5mC]*eA*eG*eA) [compound 328382] = 0.72
327901 (antisense eT*eG*eA*eG*e[5mC]*eT*eA*e[5mC]*eA*eG*eT*eG*e[5mC]*eT*eT*e[5mC]*eA*eT*e[5mC]*eT*e[5mC]*eA) [compound 327901] = 0.54
338664 (antisense e[5mC]*eA*eG*eA*e[5mC]*eT*e[5mC]*e[5mC]*e[5mC]*eA*eA*e[5mC]*eT*eG*eA*e[5mC]*e[5mC]*eA*eG*eA) [compound 338664] = 1.42

Let's switch to this substance now.
Q: I am curious: what TG value has been reported for 340927 (antisense eT*eG*eA*eG*e[5mC]*dT*dA*d[5mC]*dA*dG*dT*dG*d[5mC]*dT*dT*e[5mC]*eA*eT*e[5mC]*eT*e[5mC]*eA) [compound 340927] ?
A: 0.65
